# subjectOfTest: endogenous CGRP receptor (Homo sapiens, UniProt O60894+Q16602)
# Sequence (Q16602 23-461): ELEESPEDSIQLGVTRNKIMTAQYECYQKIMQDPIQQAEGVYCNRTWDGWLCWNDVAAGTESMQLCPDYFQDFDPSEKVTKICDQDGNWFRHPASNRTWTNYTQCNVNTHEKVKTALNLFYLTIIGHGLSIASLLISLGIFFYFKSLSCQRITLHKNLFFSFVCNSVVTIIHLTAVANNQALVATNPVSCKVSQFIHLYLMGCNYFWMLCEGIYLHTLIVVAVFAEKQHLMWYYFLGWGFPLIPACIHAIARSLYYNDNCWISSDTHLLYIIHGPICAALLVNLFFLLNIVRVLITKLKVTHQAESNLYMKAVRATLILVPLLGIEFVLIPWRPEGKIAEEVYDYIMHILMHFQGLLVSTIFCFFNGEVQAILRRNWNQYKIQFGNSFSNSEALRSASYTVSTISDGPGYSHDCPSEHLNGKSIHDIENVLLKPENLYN
# Sequence (O60894 27-148): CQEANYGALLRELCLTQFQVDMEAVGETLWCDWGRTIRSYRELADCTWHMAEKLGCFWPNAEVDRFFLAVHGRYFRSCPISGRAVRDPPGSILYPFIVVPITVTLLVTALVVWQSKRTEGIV
# assayComment: CGRP functional antagonism using SK-N-MC-BLA (4C10), β-lactamase transcriptional reporter assay
# experimentalParameters: SK-N-MC (4C10) cells, inhibition of β-lactamase expression in the presence of 200 pM CGRP
# Procedure: Measuring CGRP Functional Antagonism Using SK-N-MC-BLA (4C10): CGRP functional antagonism was characterized in a cell based transcriptional assay using a recombinant SK-N-MC line. […] Single clones were separated using Fluorescent Activated Cell Sorting (FACS) based on CGRP induced β-lactamase activity. β-lactamase activity was measured using a fluorescence energy transfer (FRET) dye, CCF4. […]
Please respond with reported IC50 for every item in the list.

COc1ccc(C2SC(CC(=O)N3CCC(N4Cc5ccccc5NC4=O)CC3)C(=O)N2CCC(C)C)cc1OC (stereo not drawn) ... 1000 to 5000 nM
CC(C)(C)N1CCN(c2c(F)cccc2C2S[C@@H](CC(=O)N3CCC(N4CCc5ccccc5NC4=O)CC3)C(=O)N2Cc2ccccc2)CC1 (stereo partly drawn) ... < 1000 nM
C[C@@H]1CN(c2c(F)cccc2[C@@H]2S[C@@H](CC(=O)N3CCC(N4CCc5ccccc5NC4=O)CC3)C(=O)N2CCC(C)(C)C)C[C@H](C)N1 ... > 5000 nM
Cc1ccc(C2SC(CC(=O)N3CCC(N4Cc5ccccc5NC4=O)CC3)C(=O)N2CCC(C)C)c(C)c1 (stereo not drawn) ... < 1000 nM
CC(C)(C)CCN1C(=O)[C@H](CC(=O)N2CCC(n3c(=O)[nH]c4ncccc43)CC2)SC1c1ccccc1N1CCNCC1=O (stereo partly drawn) ... < 1000 nM

# context switch: different compound, same IC50
Can you look up the measured IC50 of CC(C)(C)CCN1C(=O)C(CC(=O)N2CCC(N3CCc4ccccc4NC3=O)CC2)SC12CCCc1ccccc12 (stereo not drawn) for me? < 1000 nM

---

# subjectOfTest: endogenous CGRP receptor (Homo sapiens, UniProt O60894+Q16602)
# assayComment: CGRP functional antagonism using SK-N-MC-BLA (4C10), β-lactamase transcriptional reporter assay
# experimentalParameters: SK-N-MC (4C10) cells, inhibition of β-lactamase expression in the presence of 200 pM CGRP
# Method: Measuring CGRP Functional Antagonism Using SK-N-MC-BLA (4C10): CGRP functional antagonism was characterized in a cell based transcriptional assay using a recombinant SK-N-MC line. […] Single clones were separated using Fluorescent Activated Cell Sorting (FACS) based on CGRP induced β-lactamase activity. β-lactamase activity was measured using a fluorescence energy transfer (FRET) dye, CCF4. […]
Please respond with reported IC50 for every item in the list.

# example entries with known answers
CN1CCN(c2ccc(F)cc2[C@@H]2S[C@@H](CC(=O)N3CCC(n4c(=O)[nH]c5ncccc54)CC3)C(=O)N2CCC(C)(C)C)CC1 ... < 1000 nM
COC(=O)[C@@H](CC(C)C)N1C(=O)C(CC(=O)N2CCC(N3CCc4ccccc4NC3=O)CC2)SC1c1ccccc1 (stereo partly drawn) ... < 1000 nM

# context switch: different molecule, same IC50
Can you look up the measured IC50 of O=C(CC1SC(Cc2ccccc2)N(CC(F)(F)F)C1=O)N1CCC(N2Cc3ccccc3NC2=O)CC1 (stereo not drawn) for me? > 5000 nM

---

# subjectOfTest: CGRP receptor (SK-N-MC membrane) (Homo sapiens, UniProt O60894+Q16602)
# Construct: Purified SK-N-MC membrane was purchased from Perkin Elmer
# assayComment: I125-CGRP binding displacement assay on purified SK-N-MC membrane
propertyName: Ki

CC(C)(C)CCN1C(=O)C(CC(=O)N2CCC(N3CCc4ccccc4NC3=O)CC2)SC12CCSCC2 (stereo not shown) [Compound 15] ... < 1000 nM

Give measured Ki for every item shown.
1. CC(C)(C)CCN1C(=O)C(CC(=O)N2CCC(N3Cc4ccccc4NC3=O)CC2)SC1c1ncc[nH]1 (stereo not shown) [Compound 306]
2. CC(C)CC1SC(CC(=O)N2CCC(N3Cc4ccccc4NC3=O)CC2)C(=O)N1CC(F)(F)F (stereo not shown) [Compound 226]
3. CC(C)(C)N1CCN(c2c(F)cccc2[C@@H]2S[C@@H](CC(=O)N3CCC(N4CCc5ccccc5NC4=O)CC3)C(=O)N2CC2CC2)CC1 [Compound 488]
4. CC(C)(C)CCN1C(=O)[C@H](CC(=O)N2CCC(N3CCc4ccccc4NC3=O)CC2)SC1c1cccc(F)c1N1CCC(O)C1 (stereo partly shown) [Compound 463]
5. CC(C)(C)CCN1C(=O)[C@H](CC(=O)N2CCC(n3c(=O)[nH]c4ncccc43)CC2)SC1c1cccc(F)c1N1CCC(F)(F)C1 (stereo partly shown) [Compound 482]
6. CN1CCN(c2ccc(F)cc2[C@H]2S[C@@H](CC(=O)N3CCC(n4c(=O)[nH]c5ncccc54)CC3)C(=O)N2CCC(C)(C)C)CC1 [Compound 397]

1. > 5000 nM
2. < 1000 nM
3. < 1000 nM
4. < 1000 nM
5. < 1000 nM
6. > 5000 nM

Give measured Ki for every item shown.
1. CC(C)(C)CCN1C(=O)[C@H](CC(=O)N2CCC(n3c(=O)[nH]c4ncccc43)CC2)SC1c1cccc(F)c1NCCN1CCCCC1 (stereo partly shown) [Compound 532]
2. CC(C)(C)CCN1C(=O)[C@H](CC(=O)N2CCC(N3CCc4ccccc4NC3=O)CC2)SC1c1ccn(C2CCNCC2)n1 (stereo partly shown) [Compound 491]
3. CC(C)(C)CCN1C(=O)C(CC(=O)N2CCC(N3Cc4ccccc4NC3=O)CC2)SC1c1ccccc1N1CCOCC1 (stereo not shown) [Compound 160]
4. COc1cccc(C2SC(CC(=O)N3CCC(n4cc(-c5ccccc5)[nH]c4=O)CC3)C(=O)N2CCC(C)C)c1 (stereo not shown) [Compound 61]
5. COCCN1C(=O)[C@H](CC(=O)N2CCC(n3c(=O)[nH]c4ncccc43)CC2)SC1c1cccc(F)c1N1CCN(C(C)(C)C)CC1 (stereo partly shown) [Compound 535]
6. CC(C)CCN1C(=O)C(CC(=O)N2CCC(N3Cc4ccccc4NC3=O)CC2)SC1C1CCCC1 (stereo not shown) [Compound 188]

["< 1000 nM", "< 1000 nM", "< 1000 nM", "> 5000 nM", "< 1000 nM", "< 1000 nM"]

---

# subjectOfTest: endogenous CGRP receptor (Homo sapiens, UniProt O60894+Q16602)
# assayComment: CGRP functional antagonism using SK-N-MC-BLA (4C10), β-lactamase transcriptional reporter assay
# experimentalParameters: SK-N-MC (4C10) cells, inhibition of β-lactamase expression in the presence of 200 pM CGRP
Please respond with reported IC50 for every item in the list.

CN(C)c1ccccc1C1SC(CC(=O)N2CCC(N3CCc4ccccc4NC3=O)CC2)C(=O)N1CCC(C)(C)C (centres unmarked) ... < 1000 nM
CC(C)(C)CCN1C(=O)[C@H](CC(=O)N2CCC(n3c(=O)[nH]c4ncccc43)CC2)S[C@H]1c1cccc(F)c1C1CCNCC1 ... 1000 to 5000 nM
CC(C)CCN1C(=O)C(CC(=O)N2CCC(N3Cc4ccccc4NC3=O)CC2)SC12CCCCCC2 (centres unmarked) ... < 1000 nM
O=C(CC1SC(Cc2ccccc2)N(CC(F)(F)F)C1=O)N1CCC(n2cc(-c3ccccc3)[nH]c2=O)CC1 (centres unmarked) ... > 5000 nM
CC(C)(C)CCN1C(=O)C(CC(=O)N2CCC(n3c(=O)[nH]c4ncccc43)CC2)SC1c1cccc(F)c1NCCN1CCOCC1 (stereo in doubt) ... < 1000 nM
CC(C)(C)CCN1C(=O)[C@H](CC(=O)N2CCC(n3c(=O)[nH]c4ncccc43)CC2)S[C@H]1c1cccc(F)c1N1CCN(C(C)(C)C)CC1 ... < 1000 nM
CN1CCN(c2ccccc2[C@H]2SC(CC(=O)N3CCC(n4c(=O)[nH]c5ccccc54)CC3)C(=O)N2CCC(C)(C)C)CC1 (some centres unmarked) ... 1000 to 5000 nM
O=C(CC1SC(c2ccccc2F)N(CC2CCCCC2)C1=O)N1CCC(N2CCc3ccccc3NC2=O)CC1 (centres unmarked) ... 1000 to 5000 nM

Give measured IC50 for every item shown.
1. CN1CCN(c2ccccc2C2SC(CC(=O)N3CCC(N4CCc5ccccc5NC4=O)CC3)C(=O)N2CCC(C)(C)C)CC1 (centres unmarked)
2. CN1CCN(c2cc(F)ccc2C2SC(CC(=O)N3CCC(n4c(=O)[nH]c5ncccc54)CC3)C(=O)N2CCC(C)(C)C)CC1 (centres unmarked)
3. CN1CCN(c2c(F)cccc2C2SC(CC(=O)N3CCC(n4cc(-c5ccccc5)[nH]c4=O)CC3)C(=O)N2CCC(C)(C)C)CC1 (centres unmarked)
4. Cc1cc(C)c(C2SC(CC(=O)N3CCC(N4Cc5ccccc5NC4=O)CC3)C(=O)N2CCC(C)C)c(C)c1 (centres unmarked)

1: < 1000 nM; 2: 1000 to 5000 nM; 3: < 1000 nM; 4: < 1000 nM

Give measured IC50 for every item shown.
1. CN1CCN(c2ccccc2[C@H]2S[C@](C)(CC(=O)N3CCC(n4c(=O)[nH]c5ncccc54)CC3)C(=O)N2CCC(C)(C)C)CC1
2. O=C(CC1SC(C2CCOCC2)N(c2ccccc2)C1=O)N1CCC(N2CCc3ccccc3NC2=O)CC1 (centres unmarked)
3. O=C(CC1SC(c2ccccc2)N(CCc2ccncc2)C1=O)N1CCC(n2cc(-c3ccccc3)[nH]c2=O)CC1 (centres unmarked)
4. CC(C)(C)CCN1C(=O)C(CC(=O)N2CCC(N3CCc4ccccc4NC3=O)CC2)SC1c1cccc(F)c1N1CCN(C2CC2)CC1 (centres unmarked)
5. CN(C)CCNc1c(F)cccc1C1S[C@@H](CC(=O)N2CCC(N3CCc4ccccc4NC3=O)CC2)C(=O)N1CCC(C)(C)C (some centres unmarked)
6. CC(C)(C)CCN1C(=O)[C@H](CC(=O)N2CCC(N3CCc4ccccc4NC3=O)CC2)SC1c1ccccc1N1CCN(C(=O)OC(C)(C)C)CC1=O (some centres unmarked)
7. CN1CCN(c2cc(F)ccc2C2SC(CC(=O)N3CCC(N4Cc5ccccc5NC4=O)CC3)C(=O)N2CCC(C)(C)C)CC1 (centres unmarked)

< 1000 nM
> 5000 nM
> 5000 nM
< 1000 nM
< 1000 nM
< 1000 nM
< 1000 nM
